Below, each of the molecules is paired with its reported %Inh value.
# Test system: BRSK1
# settings: concentration: 1 μM, replicates: in singlicate; n = 1;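 also: KINOMEscan kinase panel screen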
Report as a plain number; the unit % is understood.

line_notation | %Inh (%)
COc1cc2c(cc1OCCN1CCN(C)CC1)ncc1c3ccc(C#N)cc3[nH]c21 | 4

Recall the recorded %Inh for `NS(=O)(=O)CCc1cccc(Nc2nccc(-c3c(-c4cccc(NC(=O)c5c(F)cccc5F)c4)nn4ccccc34)n2)c1` with BRSK1 and state it.
8

For BRSK1, provide %Inh of `Cl.Nc1ncnc2occ(-c3ccc(NC(=O)Nc4cc(C(F)(F)F)ccc4F)cc3)c12` please.
20

Write down the reported %Inh of `CC(C)(C)n1cnc2c(N)ncnc21` , test system: BRSK1.
0

###

Reported values of %Inh for individual entries
# Tested on: TLK2
# settings: concentration: 1 μM, replicates: in singlicate; n = 1
# number only, unit % dropped from output

The cases that follow already have their %Inh on record.
line_notation | %Inh, %
O=c1cc(N2CCOCC2)nc2n(Cc3cccc(F)c3)ccn12 | 0
Cc1cccc(-c2nc(-c3ccc(S(C)(=O)=O)cc3)sc2-c2ccncc2)c1 | 13
Cc1nnc(-c2ccc(C)c(-c3ccc(C(=O)Nc4ccc(NS(C)(=O)=O)cc4)cc3)c2)o1 | 4
Cc1ccc(C(=O)NCC(N)=O)cc1-n1c(C)cc(OCc2ccc(F)cc2F)c(Br)c1=O | 0
COC(=O)Nc1nc2cc(Oc3ccc(NC(=O)Nc4cc(F)ccc4F)cc3)ccc2[nH]1.Cl | 3
CN(C1=C(c2ccccc2)C(=O)NC1=O)c1ccccc1 | 6
C[C@@H](Oc1cc(-n2cnc3ccc(NC(=O)NC(C)(C)C)cc32)sc1C(N)=O)c1ccccc1Cl | 0

# evaluate next
Please look up its %Inh: `Cc1cccc(-c2nc(Nc3ccc4ncsc4c3)c3ccccc3n2)n1`
0

###

Measured %Inh by item
# Test system: CAMKK1
# settings: concentration: 1 μM, replicates: in singlicate; n = 1
Report the value in % with no unit label.

Below, each entry is followed by its recorded %Inh result.
molecule | %Inh [%]
NS(=O)(=O)c1cccc(-c2ccc3nccc(-c4cccc(S(N)(=O)=O)c4)c3c2)c1 [GW867253] | 13
CCCCCc1nc2c(N)ncnc2n1CCCCC [SKF-97255] | 0

Give recorded %Inh with CAMKK1 for the following molecule: O=C1NC(=O)C(N2CCc3ccccc32)=C1c1cccc(Cl)c1 [SB-408010]
7

Form field: %Inh recorded for O=C(NCCNc1ccnc(Nc2ccc(F)cc2)n1)c1cc2ccccc2s1 [GSK1379874] with CAMKK1 (enter value)
5

Reported %Inh for CAMKK1, given Cl.Nc1ncnc2occ(-c3ccc(NC(=O)Nc4cc(C(F)(F)F)ccc4F)cc3)c12 [SB-707548] ?
9

###

# Tested on: CSNK2A2
# settings: concentration: 1 μM, replicates: in singlicate; n = 1
Rule: %Inh below 20% gives YES. Equal to or above 20% gives NO.

Recorded results for 8 compounds are shown here.
compound | group
CN1c2ccc(NCc3ccc(F)cc3)cc2-c2c(cnn2C)S1(=O)=O | YES
COc1cc2c(cc1OCCN1CCN(C)CC1)ncc1c3ccc(C#N)cc3[nH]c21 | NO
Cn1cc(-c2ccc3c(c2)CCN3C(=O)Cc2ccccc2Cl)c2c(N)ncnc21 [GSK2608885] | YES
CC(C)Oc1ccc2c(-c3ccnc(Nc4ccc(N5CCN(C)CC5)cc4)n3)cnn2n1 [GW696155] | NO
Cc1nnc(-c2ccc3occ(-c4ccc(C(C)O)cc4)c3c2)o1 (stereo not drawn) | NO
O=C1Cc2cc(Nc3nc(NCc4cccc(S(=O)(=O)C(F)(F)F)c4)ncc3C(F)(F)F)ccc2N1 | YES
COc1ccc(Nc2nccc(N3CCC(NC(=O)Nc4cc(C)ccc4C)C3)n2)cc1 (stereo not drawn) [GSK1379741] | YES
COc1cc2c(cc1OC[C@@H](O)CO)ncc1c3ccc(C#N)cc3[nH]c21 | NO

For this compound, is %Inh lower than 20%? Cc1nnc(-c2ccc3ncc(-c4ccc(S(C)=O)cc4)n3c2)o1 (stereo not drawn)
YES

Hello, is %Inh of the following compound strictly smaller than 20%? COc1ccc(Nc2nccc(N3CCC(NC(=O)Nc4cccc(C(C)=O)c4)C3)n2)cc1 (stereo not drawn) [GSK1379731]
YES

Check if %Inh falls below 20% for Cc1cccc(Cn2ccn3c(=O)cc(N4CCOCC4)nc23)c1 [GSK2297542] .
NO

###

# Tested on: LTK
# settings: concentration: 1 μM, replicates: in singlicate; n = 1
value_kind: %Inh (%)
Numeric answer only, unit % assumed.

compound | %Inh (%)
COC(=O)Nc1nc2cc(Oc3ccc(NC(=O)Nc4cc(F)ccc4F)cc3)ccc2[nH]1.Cl [GW701424] | 0

I'd like to know its %Inh. The compound in question is COc1ccc(CNC(=O)NC2CCN(c3ccnc(Nc4ccc(OC)cc4)n3)C2)cc1 (stereo not shown) [GSK1379727]
0

Returns the measured %Inh for the input compound. Input: CCCCCc1nc2c(N)ncnc2n1CCCCC [SKF-97255]
6

Fill blank: measured %Inh of the compound N#Cc1ccc(-c2cc(-c3c[nH]nc3-c3ccccn3)ccn2)cc1 [GW693028] is ____.
0

// lookup %Inh for Fc1ccc(-c2nn3c(OCC(F)(F)F)cccc3c2-c2ccncc2)cc1 [GW514784]
0

Consider the compound shown here: COc1ccc(S(=O)(=O)NC2CCN(c3cc(C)nc(Nc4cccc(C#N)c4)n3)CC2)cc1.O=C(O)C(F)(F)F [GSK1653539] What is its recorded %Inh?
0

Which %Inh is reported for this compound? CC(C)Oc1ccc2c(-c3ccnc(Nc4ccc(N5CCN(C)CC5)cc4)n3)cnn2n1 [GW696155]
0

Find the recorded %Inh belonging to CN(C(=O)c1ccc(-c2cc(-c3c[nH]nc3-c3ccccn3)ccn2)cc1)C1CCOCC1 [GW810083] and report it.
0

GET /values?readout=%Inh&item= `Cn1ccc2ncnc(Oc3ccc(NC(=O)Nc4ccncc4)c(Cl)c3)c21`
0

###

# Test system: NIM1
# Construct: gene MGC42105
# settings: concentration: 1 μM, replicates: in singlicate; n = 1
value_kind: %Inh (%)
Number in %, nothing else.

Known results for compounds:
compound | unit_label | %Inh
CN(C1=C(c2ccccc2)C(=O)NC1=O)c1ccccc1 | % | 34
Cn1cc(-c2ccc3c(c2)CCN3C(=O)Cc2ccccc2Cl)c2c(N)ncnc21 | % | 7
O=C(NCCCN1CCOCC1)c1cccc(Nc2nccc(Nc3ccc(Oc4ccccc4)cc3)n2)c1 | % | 28

I am curious: what %Inh value has been reported for `CC(=O)Nc1ccc(COc2ccc(Nc3ccnc4cc(-c5ccccn5)ccc34)cc2)cc1.Cl` ?
23

Sample `Cc1cccc(-c2nc(Nc3ccc4ncsc4c3)c3ccccc3n2)n1` — what was its %Inh?
17

So what's the measured %Inh for this one? `COc1ccc(COc2cc(-n3cnc4ccccc43)sc2C(N)=O)cc1`
28

What does the record list as %Inh for `COc1cc2ncn(-c3cc(OCc4sccc4Cl)c(C(N)=O)s3)c2cc1OC` ?
30

Report %Inh for `COc1ccc(S(=O)(=O)NC2CCN(c3cc(C)nc(Nc4cccc(C#N)c4)n3)CC2)cc1.O=C(O)C(F)(F)F` please.
0

###

# Test system: RPS6KA5(Kin.Dom.1-N-terminal)
# settings: concentration: 1 μM, replicates: in singlicate; n = 1
Documented %Inh across a set of compounds
# number only, unit % dropped from output

Here's what some known entries look like.
compound | %Inh (%)
CNc1ncnc2[nH]ncc12 [SKF-18355] | 0
Cc1cccc(Cn2ccn3c(=O)cc(N4CCOCC4)nc23)c1 [GSK2297542] | 16
COc1ccc(Nc2nccc(N3CCC(NC(=O)Nc4cccc(C(C)=O)c4)C3)n2)cc1 (stereo not drawn) [GSK1379731] | 0
COc1ccc(Nc2ncc(C#N)c(Nc3ccccc3C(N)=O)n2)cc1N1CCN(C)CC1.Cl [GSK1558669] | 98
Cc1ccc(C(=O)NCC(N)=O)cc1-n1c(C)cc(OCc2ccc(F)cc2F)c(Br)c1=O | 20

Need %Inh, item CN(C1=C(c2ccccc2)C(=O)NC1=O)c1ccccc1 [SB-334860]
7

###

Below, each entry is listed with its recorded %Inh.
# System: PAK2
# settings: concentration: 1 μM, replicates: in singlicate; n = 1
Respond with the bare value in %.

# count of solved cases: 4
molecule | unit_label | %Inh
O=C(Nc1cccc(-c2nn3ncccc3c2-c2ccnc(Nc3cccc(C(F)(F)F)c3)n2)c1)c1c(F)cccc1F [GSK299495] | % | 0
COc1cc2c(cc1OCCN1CCN(C)CC1)ncc1c3ccc(C#N)cc3[nH]c21 | % | 39
N#Cc1c(N2CCOCC2)sc(-c2ccn[nH]2)c1-c1ccc(Cl)cc1 | % | 17
Cc1cn2c(=O)cc(N3CCOCC3)nc2n1Cc1cccc(Cl)c1Cl [GSK2334006] | % | 10

Request: %Inh, test system PAK2, entry Cc1ccc(NC(=O)c2ccnc(N3CCN(C)CC3)c2)cc1-c1ccc(C(=O)NCC2CC2)cc1 [GW775604]
37
